This collection of values is drawn from the Deep4Chem optical property database.

# Protocol Details: photoluminescence quantum yield (fraction); solvent given as SMILES
# Assay Context: in O
Here the recorded photoluminescence quantum yield is given for each entry.

Example results:
| Compound | photoluminescence quantum yield |
| --- | --- |
| O=C([O-])c1c(Cl)c(Cl)c(Cl)c(Cl)c1-c1c2cc(Cl)c(=O)c(Cl)c-2oc2c(Cl)c(O)c(Cl)cc12 | 0.628 |
| CC[N+]1(CC)CN2C(C)=CC(C)=C(C(=O)[O-])C2=N1 | 0.783 |
| CC1(C)C(/C=C/c2cc3ccc(O)cc3oc2=O)=[N+](CCCS(=O)(=O)[O-])c2ccc3c(S(=O)(=O)O)cc(S(=O)(=O)O)cc3c21 | 0.027 |
| CCCN1/C(=C/C=C(/C=C/c2sc3ccccc3[n+]2CCC)c2ccc([N+](=O)[O-])cc2)Sc2ccccc21 | 0.02 |
| CN(C)c1ccc2c(c1)Cc1ccccc1-2 | 0.12 |

q: Give the reported value of photoluminescence quantum yield for this record: O=c1oc2ccccc2c(O)c1C(CC(O)c1ccc(-c2ccc(Br)cc2)cc1)c1ccccc1 (stereo not drawn)
a: 0.017

q: Give the reported value of photoluminescence quantum yield for this record: O=C(O)C1=C/C(=C/C=[N+]2/c3cc(O)c(C[C@@H]4O[C@H](CO)[C@@H](O)C(O)[C@H]4O)cc3C[C@H]2C(=O)O)C[C@H](C(=O)O)N1 (stereo partly drawn)
a: 0.0007

q: Give the reported value of photoluminescence quantum yield for this record: COC(=O)C([NH3+])Cc1ccc2oc(-c3ccncc3)nc2c1 (stereo not drawn)
a: 0.22

---

# Protocol Details: photoluminescence quantum yield (fraction); solvent given as SMILES
# Assay Context: in CC1CCCO1
Test Readout: photoluminescence quantum yield
Answer as a number with no unit attached.

Example results:
| Molecule | Test Readout | Measured Value |
| --- | --- | --- |
| COC(=O)C(Cc1ccc2oc(-c3ccc(N(C)C)cc3)nc2c1)NC(=O)OC(C)(C)C (centres undefined) | photoluminescence quantum yield | 1 |
| O=S1(=O)c2ccc(-c3ccc4c(c3)c3ccccc3n4-c3ccccc3)cc2C2(c3cc(-c4ccc5c(c4)c4ccccc4n5-c4ccccc4)ccc31)c1cc(-c3ccc4c(c3)c3ccccc3n4-c3ccccc3)ccc1S(=O)(=O)c1ccc(-c3ccc4c(c3)c3ccccc3n4-c3ccccc3)cc12 | photoluminescence quantum yield | 0.83 |
| CC1=CC(/C=C/c2ccc3ccc4cccc5ccc2c3c45)=[N+]2C1=C(c1ccccc1)c1c(C)cc(/C=C/c3ccc4ccc5cccc6ccc3c4c56)n1[B-]2(F)F | photoluminescence quantum yield | 0.8 |

Consider the additional molecule presented here.
q: Give the reported value of photoluminescence quantum yield for this record: COC(=O)C(Cc1ccc2oc(-c3ccc(N(C)c4ccccc4)cc3)nc2c1)NC(=O)OC(C)(C)C (centres undefined)
a: 0.52

---

# Protocol Details: photoluminescence quantum yield (fraction); solvent given as SMILES
# Assay Context: in Cc1ccccc1
Here the recorded photoluminescence quantum yield is given for each entry.
Answer as a number with no unit attached.

Example results:
| Smiles Text | photoluminescence quantum yield |
| --- | --- |
| COC(=O)c1ccc2ccc3cccc4ccc1c2c34 | 0.76 |
| Fc1c(F)c(-n2c3ccccc3c3ccccc32)c(F)c(F)c1/C=C/c1ccc(C(=C(c2ccccc2)c2ccccc2)c2ccccc2)cc1 | 0.003 |
| COc1ccc2c3ccc(OC)cc3n(-c3ccc(-c4nnc(C)o4)cc3)c2c1 | 0.06 |

q: Give the reported value of photoluminescence quantum yield for this record: `CCOC(=O)C(C(=O)OCC)C1=[N+]2C(=C(c3ccc(C)cc3)c3ccc(C(C(=O)OCC)C(=O)OCC)n3[B-]2(F)F)C=C1`
a: 0.89

---

Here the recorded photoluminescence quantum yield is given for each entry.
# Protocol Details: photoluminescence quantum yield (fraction); solvent given as SMILES
# Assay Context: in CC#N
Answer as a number with no unit attached.

Example results:
| Compound | photoluminescence quantum yield |
| --- | --- |
| COc1ccc(C2=C3C=CC(C)=[N+]3[B-](F)(F)n3c(C)ccc32)cc1 | 0.21 |
| Cc1ccccc1/C(C#N)=C/c1ccc(N(C)C)cc1 | 0.014 |
| COc1ccc(C2=C3C(C)=CC(C)=[N+]3[B-](F)(F)n3c(/C=C/c4ccc(N(C)C)cc4)cc(C)c32)cc1 | 0.09 |
| COc1ccc2cc3c(C)cc(=O)oc3cc2c1 | 0.0071 |
| CC(C)(C)c1ccc2c(c1)c1cc(C(C)(C)C)ccc1n2-c1ccc(C#Cc2ccc(C#Cc3ccc(-n4c5ccc(C(C)(C)C)cc5c5cc(C(C)(C)C)ccc54)cc3)cc2)cc1 | 0.67 |

Consider the additional compound presented here.
q: Give the reported value of photoluminescence quantum yield for this record: `CCC1=C(C)C2=C(c3ccc(-c4c5ccccc5c(-c5ccccc5)c5ccccc45)cc3)c3c(C)c(CC)c(C)n3[B-](F)(F)[N+]2=C1C`
a: 0.696

---

# Protocol Details: photoluminescence quantum yield (fraction); solvent given as SMILES
# Assay Context: in CC#N
Categories are assigned from the measured photoluminescence quantum yield using these intervals: class A (below 0.1), class B (0.1 to below 0.4), class C (0.4 or more)

| Molecule | Class Name |
| --- | --- |
| C(=C\c1ccc2ccccc2c1)/c1ccc(N(c2ccccc2)c2ccccc2)cc1 | class C |
| C=Cc1cc2ccccc2oc1=O | class A |
| CCNc1ccc2c(C(F)(F)F)cc(=O)oc2c1 | class C |
| C(/C=C/c1cc2c3c(c1)CCCN3CCC2)=C\c1ccncc1 | class A |

q: Please let me know in which category the item `COc1cc(N(c2ccccc2)c2ccccc2)ccc1C=C(C#N)C#N` belongs.
a: class A

q: Please let me know in which category the item `Cc1cc(C)c(C2=[N+]3C(=Cc4c(C)cc(C)n4[B-]3(F)F)c3ccccc32)[nH]1` belongs.
a: class A

q: Please let me know in which category the item `COC(=O)c1cc(=O)n(C)c2cc(-c3cccc(OC)c3)sc12` belongs.
a: class B

q: Please let me know in which category the item `Cc1cc(C(F)(F)F)nc2c1ccc1nc(-c3ccc(Cl)cc3)cn12` belongs.
a: class C

q: Please let me know in which category the item `C[n+]1ccn(CCCCc2ccc3c(c2)c2ccccc2n3-c2cc(C#N)c(C#N)cc2-n2c3ccccc3c3cc(CCCCn4cc[n+](C)c4)ccc32)c1` belongs.
a: class A

q: Please let me know in which category the item COc1ccc(C2CC(c3ccc(O)cc3)=NN2c2ccc(S(N)(=O)=O)cc2)cc1 (centres undefined) belongs.
a: class C

q: Please let me know in which category the item `COc1cccc(C2=C(c3ccc(C(C)(C)C)cc3)C(c3ccc(C(C)(C)C)cc3)=[N+]3C2=C(c2ccccc2)c2c(-c4cccc(OC)c4)c(-c4ccc(C(C)(C)C)cc4)c(-c4ccc(C(C)(C)C)cc4)n2[B-]3(F)F)c1` belongs.
a: class B

q: Please let me know in which category the item `CN(C)c1ccc(-c2nc3cccnc3[nH]2)cc1` belongs.
a: class C

q: Please let me know in which category the item `COc1c2ccccc2c(OC)c2c1c1ccc(C)cc1n2C` belongs.
a: class C

q: Please let me know in which category the item O=P1(c2ccccc2)C(c2cc(C(F)(F)F)cc(C(F)(F)F)c2)=Cc2c3ccc4cccc5ccc(c6cc(-c7ccc(N(c8ccccc8)c8ccccc8)cc7)n1c26)c3c45 (centres undefined) belongs.
a: class A

q: Please let me know in which category the item `CC1=C(c2cccs2)C2=Cc3c(-c4cccs4)c(C)c(C)n3[B-](F)(F)[N+]2=C1C` belongs.
a: class C

q: Please let me know in which category the item `CCCN(c1ccccc1)c1ccc2c(c1)C(CC)(CC)c1cc(/C=C/c3ccc(/C=C(\C#N)C(=O)O)s3)ccc1-2` belongs.
a: class B

q: Please let me know in which category the item `CC(C)[Si]1(C(C)C)c2cc(C=C(C#N)C#N)ccc2-c2ccc(N(C)C)cc21` belongs.
a: class B

q: Please let me know in which category the item `COC(=O)c1ccc2ccc3cccc4ccc1c2c34` belongs.
a: class C

---

# Protocol Details: photoluminescence quantum yield (fraction); solvent given as SMILES
# Assay Context: in ClCCl
Test Readout: photoluminescence quantum yield
Answer as a number with no unit attached.

Example results:
| Compound | photoluminescence quantum yield |
| --- | --- |
| CCCCCCc1cc2c(s1)-c1cc3c(cc1NB2c1ccccc1)-c1sc(CCCCCC)cc1B(c1ccccc1)N3 | 0.2 |
| C(=C\c1cnccn1)/c1ccc(N(c2ccccc2)c2ccccc2)cc1 | 0.41 |
| CCN1c2ccc(C3=CC(c4ccccc4)=[O+][B-](F)(F)O3)cc2Sc2cc(C3=CC(c4ccccc4)=[O+][B-](F)(F)O3)ccc21 | 0.46 |
| Cc1ccc(-c2c3nc(c(-c4ccc(C)cc4)c4ccc([nH]4)c(-c4ccc(OC(=O)C(C)c5ccc(Oc6ccccc6)cc5)cc4)c4nc(c(-c5ccc(C)cc5)c5ccc2[nH]5)C=C4)C=C3)cc1 (configuration not stated) | 0.128 |
| CCCCCCCCCCCn1cccc1C1=[N+]2C(=Cc3c(C)cc(C)n3[B-]2(F)F)c2ccccc21 | 0.99 |
| N#Cc1ccc(-c2cn3cc(C#N)c[n+]3[n-]2)cc1 | 0.45 |

Consider the additional compound presented here.
q: Give the reported value of photoluminescence quantum yield for this record: CCCCC(CC)Cn1c2cc(C#N)ccc2c2cc(-c3ccc(N(c4ccccc4)c4ccccc4)cc3)c(C#N)cc21 (configuration not stated)
a: 0.31
